The values you see were collected from the supplement of paper PMC10567573.

B1: STEAP1 (parent)
chain: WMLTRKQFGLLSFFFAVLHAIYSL

variants of: B1; test: protein stability index of a GFP-peptide fusion (GPS, HEK-293T) (PSI 1-6); higher = more stable; settings: c terminus: a fixed tail appended;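 further: lentivirally expressed fusions sorted by FACS into six bins by GFP to DsRed ratio, PSI derived from sequencing read proportions per bin multiplied by bin number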
valueType: protein stability index
# respond with the number and nothing more

Worked set:
> print(dat)
                 constructsequence  measuredvalue
1   WMLTRKQDGLLSFFFAVLHAIYSL [F8D]           2.31
2   WMLTRMQFGLLSFFFAVLHAIYSL [K6M]           2.07
3  WMLTRKQFGLLSFFFAVLHMIYSL [A20M]           1.66
4   WMLFRKQFGLLSFFFAVLHAIYSL [T4F]           2.31
5  WMLTRKQFGLLSFFGAVLHAIYSL [F15G]           1.58

// below: protein stability index requested for another variant
Problem: Let me know recorded protein stability index for WMLTRKQFGLLSFDFAVLHAIYSL [F14D] , thanks.
Result: 3.4
